Tested on: Nucleic Acid
assay overview: Binding affinity to human 21-TT G-quadruplex DNA structure assessed as bound DNA at 5:10 DNA to drug ratio by electrospray ionization mass spectrometry
Format: nucleic-acid assay
endpoint: Activity (%)

> print(dat)
                                item.smiles  result.unit  numeric.readout
1  O=C1c2ccc3c4ccc5c6c(cc(N7CCCCC7)c(c7ccc(c2c37)C(=O)N1CCOCCN1CCCCC1)c64)C(=O)N(CCOCCN1CCCCC1)C5=O            %               75
2  CN(C)CCOCCN1C(=O)c2ccc3c4c(N5CCCCC5)cc5c6c(ccc(c7c(N8CCCCC8)cc(c2c37)C1=O)c64)C(=O)N(CCOCCN(C)C)C5=O            %               30
3  O=C1c2ccc3c4c(N5CCCCC5)cc5c6c(ccc(c7c(N8CCCCC8)cc(c2c37)C(=O)N1CCN1CCCCC1)c64)C(=O)N(CCN1CCCCC1)C5=O            %               33
4  CN(C)CCCN1CCN(c2cc3c4c(ccc5c6ccc7c8c(ccc(c2c45)c86)C(=O)N(CCN2CCCCC2)C7=O)C(=O)N(CCN2CCCCC2)C3=O)CC1            %               76
5  O=C1c2ccc3c4c(N5CCCCC5)cc5c6c(cc(N7CCCCC7)c(c7ccc(c2c37)C(=O)N1CCOCCN1CCCCC1)c64)C(=O)N(CCOCCN1CCCCC1)C5=O            %               30

====

System: Nucleic Acid
assay overview: Binding affinity to human 21-TT G-quadruplex DNA structure assessed as second step association constant by electrospray ionization mass spectrometry
Assay type: nucleic-acid assay
The following compounds are listed with their measured log Ks values.
endpoint: log Ks

> print(dat)
                                item.smiles  endpoint  numeric.readout
1  CNCCOCCN1C(=O)c2ccc3c4c(N5CCCCC5)cc5c6c(ccc(c7c(N8CCCCC8)cc(c2c37)C1=O)c64)C(=O)N(CCOCCNC)C5=O    log Ks              4.8
2  CN(C)CCOCCN1C(=O)c2ccc3c4c(N5CCCCC5)cc5c6c(ccc(c7c(N8CCCCC8)cc(c2c37)C1=O)c64)C(=O)N(CCOCCN(C)C)C5=O    log Ks              4.9
3  O=C1c2ccc3c4c(N5CCCCC5)cc5c6c(ccc(c7c(N8CCCCC8)cc(c2c37)C(=O)N1CCOCCN1CCCCC1)c64)C(=O)N(CCOCCN1CCCCC1)C5=O    log Ks              4.8
4  O=C1c2ccc3c4c(N5CCCCC5)cc5c6c(cc(N7CCCCC7)c(c7ccc(c2c37)C(=O)N1CCOCCN1CCCCC1)c64)C(=O)N(CCOCCN1CCCCC1)C5=O    log Ks              4.8
5  CN(C)CCCN1CCN(c2cc3c4c(ccc5c6ccc7c8c(ccc(c2c45)c86)C(=O)N(CCN2CCCCC2)C7=O)C(=O)N(CCN2CCCCC2)C3=O)CC1    log Ks                5
6  CN1CCN(c2cc3c4c(ccc5c6c(N7CCN(C)CC7)cc7c8c(ccc(c2c45)c86)C(=O)N(CCN2CCCCC2)C7=O)C(=O)N(CCN2CCCCC2)C3=O)CC1    log Ks              5.6
7  O=C1c2ccc3c4ccc5c6c(cc(N7CCCCC7)c(c7ccc(c2c37)C(=O)N1CCOCCN1CCCCC1)c64)C(=O)N(CCOCCN1CCCCC1)C5=O    log Ks                5
8  O=C1c2ccc3c4c(N5CCCCC5)cc5c6c(ccc(c7c(N8CCCCC8)cc(c2c37)C(=O)N1CCN1CCCCC1)c64)C(=O)N(CCN1CCCCC1)C5=O    log Ks              4.6

====

Tested on: Nucleic Acid
assay overview: Binding affinity to human DK66 duplex DNA structure assessed as first step association constant by electrospray ionization mass spectrometry
Type: nucleic-acid assay
Cut-off 4 on log Ks: below means YES, at or above means NO.

> print(dat)
                                item.smiles  discrete.label
1  O=C1c2ccc3c4c(N5CCCCC5)cc5c6c(ccc(c7c(N8CCCCC8)cc(c2c37)C(=O)N1CCOCCN1CCCCC1)c64)C(=O)N(CCOCCN1CCCCC1)C5=O              NO
2  O=C1c2ccc3c4c(N5CCCCC5)cc5c6c(cc(N7CCCCC7)c(c7ccc(c2c37)C(=O)N1CCOCCN1CCCCC1)c64)C(=O)N(CCOCCN1CCCCC1)C5=O             YES
3  CNCCOCCN1C(=O)c2ccc3c4c(N5CCCCC5)cc5c6c(ccc(c7c(N8CCCCC8)cc(c2c37)C1=O)c64)C(=O)N(CCOCCNC)C5=O             YES
4  CN(C)CCCN1CCN(c2cc3c4c(ccc5c6ccc7c8c(ccc(c2c45)c86)C(=O)N(CCN2CCCCC2)C7=O)C(=O)N(CCN2CCCCC2)C3=O)CC1              NO
5  CN1CCN(c2cc3c4c(ccc5c6c(N7CCN(C)CC7)cc7c8c(ccc(c2c45)c86)C(=O)N(CCN2CCCCC2)C7=O)C(=O)N(CCN2CCCCC2)C3=O)CC1              NO
6  CN1CCN(CCOCCN2C(=O)c3ccc4c5c(N6CCCCC6)cc6c7c(ccc(c8c(N9CCCCC9)cc(c3c48)C2=O)c75)C(=O)N(CCOCCN2CCN(C)CC2)C6=O)CC1             YES
7  O=C1c2ccc3c4c(N5CCCCC5)cc5c6c(ccc(c7c(N8CCCCC8)cc(c2c37)C(=O)N1CCN1CCCCC1)c64)C(=O)N(CCN1CCCCC1)C5=O             YES
